# assay.explanation: The half-life period in vitro in plasma
# Assay type: ADME, cell-free
Recorded half-life by entry

{"columns": ["compound", "half-life"],
 "data": [
  ["C/C(=C\\c1ccc(C(=O)Oc2ccc(C(=N)N)cc2)cc1)C(=O)N(CC(=O)O)C1CCCC1", "23 min"],
  ["C=CCN(CCC(=O)OCC)C(=O)/C(C)=C/c1ccc(C(=O)Oc2ccc(C(=N)N)cc2)cc1", "< 1 min"],
  ["CCOC(=O)CCCN(C(=O)/C(C)=C/c1ccc(C(=O)Oc2ccc(C(=N)N)cc2)cc1)C(C(=O)O)C(=O)OCC (stereo not drawn)", "14 min"]
]}

// query Can you share its half-life? I mean this compound: "CCOC(=O)CN(C(=O)/C(C)=C/c1ccc(C(=O)Oc2ccc(C(=N)N)cc2)cc1)C1CCCC1"
// result < 5 min

// query Can you share its half-life? I mean this compound: "C/C(=C\c1ccc(C(=O)Oc2ccc(C(=N)N)cc2)cc1)C(=O)N(CC(=O)O)Cc1ccccc1"
// result > 60 min

// query Can you share its half-life? I mean this compound: "C=CCN(CCCC(=O)O)C(=O)/C(C)=C/c1ccc(C(=O)Oc2ccc(C(=N)N)cc2)cc1"
// result > 60 min

// query Can you share its half-life? I mean this compound: "C/C(=C\c1ccc(C(=O)Oc2ccc(C(=N)N)cc2)cc1)C(=O)N(CCO)Cc1ccccc1"
// result < 5 min

// query Can you share its half-life? I mean this compound: "C=CCN(CCCC(=O)OCC)C(=O)/C(C)=C/c1ccc(C(=O)Oc2ccc(C(=N)N)cc2)cc1"
// result < 1 min
